Tested on: S. cerevisiae NKY1551 his4x/his4B, sporulating;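 further: active if sensitivity score above 5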
method.notes: HIS4 meiotic recombination assay sensitivity score (z-score vs DMSO controls); higher = stronger inhibition of sporulation/recombination, active = hit call of the paper
Where a name gives a salt, the structure may show the parent alone.
Provide the recorded HIS4 meiotic recombination assay sensitivity score for the entries that follow.
Answers are plain numbers.

The cases that follow already have their HIS4 meiotic recombination assay sensitivity score on record.
{"columns": ["compound", "experimental.value"],
 "data": [
  ["O=C1CC2(CCCC2)CC(=O)N1CCNCC1COc2ccccc2O1 (stereo unspecified) (stock concentration (mM, diluted 1:100): 10)", -0.57],
  ["Cc1occc(=O)c1O [Maltol] (stock concentration (mM, diluted 1:100): 10)", 0.46],
  ["CC(=O)Nc1ccc(CC(=O)O)cc1 [Actarit] (stock concentration (mM, diluted 1:100): 10)", 0.62],
  ["CC(C)(C)C(O)/C=C/c1ccc2c(c1)OCO2 (stereo unspecified) [Stiripentol] (stock concentration (mM, diluted 1:100): 10)", 1.81],
  ["CC(C)(C)NC(=O)[C@@H]1C[C@@H]2CCCC[C@@H]2CN1C[C@@H](O)[C@H](Cc1ccccc1)NC(=O)[C@H](CC(N)=O)NC(=O)c1ccc2ccccc2n1 [Saquinavir mesylate] (stock concentration (mM, diluted 1:100): 8.8)", -1.67]
]}

For reference, reported HIS4 meiotic recombination assay sensitivity score for CC=CC(=O)N(CC)c1ccccc1C [Crotamiton] (stock concentration (mM, diluted 1:100): 10.3) stands at 3.54

* * *

Test system: S. cerevisiae SK1 pCDA2-eGFP (USY613), sporulating;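 further: active if sensitivity score above 5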
method.notes: CDA2-GFP sporulation assay sensitivity score (z-score vs DMSO controls); higher = stronger inhibition of sporulation, active = hit call of the paper
property.label: CDA2-GFP sporulation assay sensitivity score
Answers are plain numbers.

The cases that follow already have their CDA2-GFP sporulation assay sensitivity score on record.
{"columns": ["compound", "experimental.value"],
 "data": [
  ["CC(=O)NCCCCCCNC(C)=O [Hexamethylene bisacetamide] (stock concentration (mM, diluted 1:100): 10)", 0.71],
  ["COc1ccc2[nH]c([S+]([O-])Cc3ncc(C)c(OC)c3C)nc2c1 (stereo unspecified) [Omeprazole] (stock concentration (mM, diluted 1:100): 10)", 6.11],
  ["CN(C)CCOC(C)(c1ccccc1)c1ccccn1 (stereo unspecified) [Doxylamine succinate] (stock concentration (mM, diluted 1:100): 10)", -0.3],
  ["C/C=C1\\[C@H]2C=C(C)C[C@]1(N)c1ccc(=O)[nH]c1C2 [Huperzine a] (stock concentration (mM, diluted 1:100): 10)", 3.17],
  ["CC(COc1ccccc1Cc1ccccc1)N1CCCCC1 (stereo unspecified) [Benproperine phosphate] (stock concentration (mM, diluted 1:100): 10)", 0.55]
]}

Here is the next item to consider.
For reference, reported CDA2-GFP sporulation assay sensitivity score for CCCCC[C@H](O)/C=C/[C@H]1[C@H](O)CC(=O)[C@@H]1CCCCCCC(=O)O [Prostaglandin E1] (stock concentration (mM, diluted 1:100): 10) stands at 6.45

* * *

Provide the recorded HIS4 meiotic recombination assay sensitivity score for the entries that follow.
System: S. cerevisiae NKY1551 his4x/his4B, sporulating;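 further: active if sensitivity score above 5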
method.notes: HIS4 meiotic recombination assay sensitivity score (z-score vs DMSO controls); higher = stronger inhibition of sporulation/recombination, active = hit call of the paper
Counter-ions that a name gives are not always drawn.
Answers are plain numbers.

{"columns": ["molecule", "experimental.value"],
 "data": [
  ["COc1cc(-c2ccc(=O)[nH]n2)ccc1OC(F)F [Zardaverine] (stock concentration (mM, diluted 1:100): 11.7)", -0.18],
  ["CC[C@@]1(O)C(=O)OCc2c1cc1n(c2=O)Cc2cc3c(CN(C)C)c(O)ccc3nc2-1 [Topotecan hydrochloride] (stock concentration (mM, diluted 1:100): 9.2)", 0.22],
  ["CC(N/C(=N\\C#N)Nc1ccncc1)C(C)(C)C (configuration not stated) [Pinacidil monohydrate] (stock concentration (mM, diluted 1:100): 10)", -1.38]
]}

Provide HIS4 meiotic recombination assay sensitivity score values for the following items, in order.
1. C[C@@H]1CN(CCCn2c3ccccc3c3ccccc32)C[C@H](C)N1 [Rimcazole] (stock concentration (mM, diluted 1:100): 10.1)
2. COc1ccccc1OCCNCC(O)COc1cccc2[nH]c3ccccc3c12 (configuration not stated) [Carvedilol] (stock concentration (mM, diluted 1:100): 10)
3. CC(=O)OCC(=O)NCCCOc1cccc(CN2CCCCC2)c1 [Roxatidine acetate hydrochloride] (stock concentration (mM, diluted 1:100): 9.1)
4. CCN1CC(CCN2CCOCC2)C(c2ccccc2)(c2ccccc2)C1=O (configuration not stated) [Doxapram hydrochloride] (stock concentration (mM, diluted 1:100): 10.4)
5. C[C@@H](c1ncncc1F)[C@](O)(Cn1cncn1)c1ccc(F)cc1F [Voriconazole] (stock concentration (mM, diluted 1:100): 9.9)
6. CN1CCC(=C2c3ccccc3C=Cc3ccccc32)CC1 [Cyproheptadine hydrochloride] (stock concentration (mM, diluted 1:100): 10)

1. -2.16
2. 0.66
3. -1.59
4. 1.8
5. 0.14
6. 6.95

Provide HIS4 meiotic recombination assay sensitivity score values for the following items, in order.
1. CC1=Nc2ccc(Cl)cc2S(=O)(=O)N1 [Diazoxide] (stock concentration (mM, diluted 1:100): 10)
2. C#C[C@]1(O)CC[C@H]2[C@@H]3CCc4cc(O)ccc4[C@H]3CC[C@@]21C [Ethynylestradiol] (stock concentration (mM, diluted 1:100): 10)
3. Nc1nc(Cl)nc2c1ncn2[C@@H]1O[C@H](CO)[C@@H](O)[C@H]1O [2-Chloroadenosine] (stock concentration (mM, diluted 1:100): 10)

1. -1.19
2. -1.32
3. -0.54

* * *

Tested on: S. cerevisiae BY4741 (wild-type), vegetative growth in YPD
method.notes: growth sensitivity score (doubling time z-score vs DMSO controls); higher = slower growth, strongly negative scores also mark growth inhibition (complete suppression), active = hit call of the paper
Counter-ions that a name gives are not always drawn.
Provide the recorded growth sensitivity score for the entries that follow.
Numbers only.

{"columns": ["molecule", "growth sensitivity score"],
 "data": [
  ["C[C@]12CC[C@@H]3c4ccc(O)cc4CC[C@H]3[C@@H]1CC[C@@H]2O [Beta-Estradiol] (stock concentration (mM, diluted 1:100): 10)", 3.35]
]}

Provide growth sensitivity score values for the following items, in order.
1. CC(C)c1ccc2oc3nc(N)c(C(=O)O)cc3c(=O)c2c1 [Amlexanox] (stock concentration (mM, diluted 1:100): 10)
2. CN1CCC(=C2c3ccccc3C=Cc3ccccc32)CC1 [Cyproheptadine hydrochloride] (stock concentration (mM, diluted 1:100): 10)

[1.8, 3.38]

* * *

Provide the recorded HIS4 meiotic recombination assay sensitivity score for the entries that follow.
System: S. cerevisiae NKY1551 his4x/his4B, sporulating;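 further: active if sensitivity score above 5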
method.notes: HIS4 meiotic recombination assay sensitivity score (z-score vs DMSO controls); higher = stronger inhibition of sporulation/recombination, active = hit call of the paper
Where a name gives a salt, the structure may show the parent alone.
One number for each entry.

{"columns": ["compound", "experimental.value"],
 "data": [
  ["CCc1nn(CCCN2CCN(c3cccc(Cl)c3)CC2)c(=O)n1CCOc1ccccc1 [Nefazodone] (stock concentration (mM, diluted 1:100): 9.3)", 3],
  ["CCOC(=O)c1ccc(OC(=O)CCCCCNC(=N)N)cc1 [Gabexate mesylate] (stock concentration (mM, diluted 1:100): 7.7)", 2.41]
]}

Here is the next item to consider.
S. cerevisiae NKY1551 his4x/his4B, sporulating HIS4 meiotic recombination assay sensitivity score of C[C@]12C[C@H](O)[C@H]3[C@@H](CCC4=CC(=O)CC[C@@]43C)[C@@H]1CC[C@@H]2C(=O)CO [Corticosterone] (stock concentration (mM, diluted 1:100): 10) is 1.37

* * *

Test system: S. cerevisiae AD1-9 (efflux-pump deficient), vegetative growth in YPD
method.notes: growth sensitivity score (doubling time z-score vs DMSO controls); higher = slower growth, strongly negative scores also mark growth inhibition (complete suppression), active = hit call of the paper
Where a name gives a salt, the structure may show the parent alone.
Provide the recorded growth sensitivity score for the entries that follow.
One number for each entry.

{"columns": ["molecule", "system", "growth sensitivity score"],
 "data": [
  ["CC[C@H](C)C(=O)O[C@H]1CCC=C2C=C[C@H](C)[C@H](CC[C@@H]3C[C@@H](O)CC(=O)O3)[C@H]21 [Mevastatin] (stock concentration (mM, diluted 1:100): 10)", "S. cerevisiae AD1-9 (efflux-pump deficient), vegetative growth in YPD", 130],
  ["Nc1ncnc2c1ncn2[C@@H]1O[C@H](CO)C[C@@H]1O [3-Deoxydenosine] (stock concentration (mM, diluted 1:100): 10)", "S. cerevisiae AD1-9 (efflux-pump deficient), vegetative growth in YPD", 110],
  ["C[C@]12C=CC(=O)C=C1CC[C@@H]1[C@@H]2[C@@H](O)C[C@@]2(C)[C@H]1CC[C@]2(O)C(=O)COC(=O)CCC(=O)O (stock concentration (mM, diluted 1:100): 10)", "S. cerevisiae AD1-9 (efflux-pump deficient), vegetative growth in YPD", -0.63],
  ["CNC(=N)NCCC[C@H](N)C(=O)O [omega-N-Methylarginine] (stock concentration (mM, diluted 1:100): 9.3)", "S. cerevisiae AD1-9 (efflux-pump deficient), vegetative growth in YPD", -3.59],
  ["O=c1c(O[C@@H]2O[C@H](CO)[C@@H](O)[C@H](O)[C@H]2O)c(-c2ccc(O)c(O)c2)oc2cc(O)cc(O)c12 [Isoquercetrin] (stock concentration (mM, diluted 1:100): 10)", "S. cerevisiae AD1-9 (efflux-pump deficient), vegetative growth in YPD", -0.6],
  ["CC(Cc1ccccc1)(NC(=O)CN)c1ccccc1 (stereo unspecified) [Remacemide] (stock concentration (mM, diluted 1:100): 10)", "S. cerevisiae AD1-9 (efflux-pump deficient), vegetative growth in YPD", 4.61],
  ["O=c1[nH]c(=O)n(C2CCCO2)cc1F (stereo unspecified) [Ftorafur] (stock concentration (mM, diluted 1:100): 10)", "S. cerevisiae AD1-9 (efflux-pump deficient), vegetative growth in YPD", -0.92],
  ["CNCCCCOc1ccccc1Cc1ccccc1 [Bifemelane] (stock concentration (mM, diluted 1:100): 10)", "S. cerevisiae AD1-9 (efflux-pump deficient), vegetative growth in YPD", 127]
]}

Provide growth sensitivity score values for the following items, in order.
1. COc1ccc(CC2c3cc(OC)c(OC)cc3CC[N+]2(C)CCC(=O)OCCCCCOC(=O)CC[N+]2(C)CCc3cc(OC)c(OC)cc3C2Cc2ccc(OC)c(OC)c2)cc1OC (stereo unspecified) [Atracurium besylate] (stock concentration (mM, diluted 1:100): 10)
2. CN(C/C=C/C#CC(C)(C)C)Cc1cccc2ccccc12 [Terbinafine hydrochloride] (stock concentration (mM, diluted 1:100): 8.9)
3. CCOC(=O)C1=C(C)NC(C)=C(C(=O)OC)C1c1cccc([N+](=O)[O-])c1 (stereo unspecified) [Nitrendipine] (stock concentration (mM, diluted 1:100): 10)

[-2.52, 30.1, 23.1]
